target: T1, HLA-DRB1*0101 (human); assay: competition with 125I probe peptide, purified HLA; details: remark: other sources report otherwise
T1 chain 1: not shown
T1 chain 2: not shown
PROPERTY: IC50 (nM)

{"BINDER": "LSVFQNLQVIRGRIL [Her2/neu.422]", "IC50 (nM)": 28}
{"BINDER": "CKKIFGSLAFLPESF [Her2/neu.367]", "IC50 (nM)": 21}
{"BINDER": "SRLLGICLTSTVQLV [Her2/neu.783]", "IC50 (nM)": 14}

(1) NLELTYLPTNASLSF [Her2/neu.59]
(2) VWELMTFGAKPYDGI [Her2/neu.912]
(3) TVQLVTQLMPYGCLL [Her2/neu.793]
Sort ascending by IC50. # the answer lists labels in the order requested 1, 3, 2
(1: 11 nM, 3: 22 nM, 2: 58 nM)
